protocol_details: Half life in simulated gastric fluid at 20 uM by LC-MS/MS analysis
Format: ADME
*1 amine or outer side, *2 acyl side, *3 side chain or, on linkers, in order; H or OH if unused. Where a SMILES comes first, the peptide text is derived from it. Bridges are numbered along the chain shown (N, C = ends). [ ]: non-standard residue; d: D form. Abu(4-yl) = O=C([C@H](CC[*:3])N[*:1])[*:2]; 2Nal = N[C@@H](Cc1ccc2ccccc2c1)C(=O)O; AEF = NCCOc1ccc(C[C@H](N)C(=O)O)cc1; αMeK = C[C@](N)(CCCCN)C(=O)O
measured_metric: half-life at 20 µM

- molecule: "COc1ccc(C[C@H](NC(=O)[C@@H](NC(=O)[C@H](CCC(N)=O)NC(=O)[C@H](Cc2c[nH]c3ccccc23)NC(=O)[C@@H](NC(=O)[C@H](CCC(N)=O)NC(=O)[C@@H](NC(C)=O)C(C)(C)S)[C@@H](C)O)C(C)(C)S)C(=O)N[C@@H](Cc2ccc3ccccc3c2)C(=O)N[C@@](C)(CCCCN)C(=O)N[C@@H](CCC(=O)O)C(=O)N[C@@H](CC(N)=O)C(=O)NCC(N)=O)cc1"
  result: "2 to 3 h"

Now examine the next entry.
Given the entry CC(=O)N[C@H]1CCSC[C@@H](C(=O)N[C@@H](Cc2ccc(OCCN)cc2)C(=O)N[C@@H](Cc2ccc3ccccc3c2)C(=O)N[C@@](C)(CCCCN)C(=O)N[C@@H](CCC(=O)O)C(=O)N[C@@H](CC(N)=O)C(=O)N[C@@H](CCC(N)=O)C(N)=O)NC(=O)[C@H](CCC(N)=O)NC(=O)[C@H](Cc2c[nH]c3ccccc23)NC(=O)[C@H]([C@@H](C)O)NC(=O)[C@H](CCC(N)=O)NC1=O (Ac-[Abu(4-yl)]QTWQC[AEF][2Nal][αMeK]ENQ-NH2; thioether 1-6) , report its measured half-life at 20 µM.
3 to 6 h
